Below, each entry is listed with its recorded normalized growth.
experiment: chemical genetic growth profiling, strain panel (AID 1159580);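 further: tested at 20 µM; growth read once vehicle control cultures reached saturation at 30 °C; 1 = growth at the plate median or of vehicle wells; lower values mean less growth of the strain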; conditions: S. cerevisiae deletion strains, growth OD, locus YER110C, hits give low values
Among all 5,500 compounds or so, about 2,000 (36%) were called active. About 18% were inconclusive and are not listed. This is one part of the list.

Molecule | normalized growth
COC(=O)C[C@H]1C(C)(C)[C@@H](O)[C@@H]2CC3=C4C=C(OC)O[C@@H](c5ccoc5)[C@]4(C)CCC3[C@@]1(C)C2=O (some centres undefined) | 0.979
CC[C@@H](CO)NC(=O)[C@@H]1C=C2c3cccc4[nH]cc(c34)C[C@H]2N(C)C1 | 0.977
COP(=O)(OC)OC(Br)C(Cl)(Cl)Br (centres undefined) | 0.993
CC1(C)C(=O)[C@@H]2C[C@@]3(O)C4=CC(=O)O[C@@H](c5ccoc5)[C@]4(C)CCC3[C@@](C)(C2=O)[C@H]1CC(=O)O (some centres undefined) | 0.984
CN1CCN(CC(=O)N2c3ccccc3C(=O)Nc3cccnc32)CC1 | 1.02
CO[C@H]1C[C@H](O[C@H]2[C@H](C)[C@@H](OC3O[C@H](C)C[C@H](N(C)C)[C@H]3OC(C)=O)[C@@H](C)C[C@]3(CO3)C(=O)[C@H](C)[C@@H](OC(C)=O)[C@@H](C)[C@@H](C)OC(=O)[C@@H]2C)O[C@@H](C)[C@@H]1OC(C)=O (some centres undefined) | 0.988
CCOc1ccc(NC(C)=O)cc1 | 0.979
COc1ccc(C(=O)c2ccc(O)cc2)c(O)c1O | 0.983
CCOc1ccc(C(=O)c2cc(O)c(OC)c(OC)c2O)cc1 | 1.03

====

assay: chemical genetic growth profiling, strain panel (AID 1159580); conditions: S. cerevisiae deletion strains, growth OD, locus YBR229C, strain ROT2, hits give low values
Out of some 5,500 compounds screened, about 2,000 (36%) were called active. About 18% were inconclusive and are not listed. Some of the results follow.
Below, each entry is listed with its recorded normalized growth.
Observed Property: normalized growth

Molecule | Observed Value
CC(=O)c1cc2c(cc1O)OC(C)(C)C=C2 | 0.983
COc1cc2c(cc1OC)[C@@]13CCN4CC5=CCOC6CC(=O)N2C1[C@H]6[C@H]5C[C@H]43 (stereo partly specified) | 1.01
CC(=O)Nc1cc2ccccc2oc1=O | 1
COc1c2c(cc3c1OCO3)C13C=C[C@H](OC)CC1N(C2)CC3O (stereo partly specified) | 1
N#C/C(=C\N(CCS(=O)(=O)c1ccc(Cl)cc1)Cc1cccs1)S(=O)(=O)c1ccc(Cl)cc1 | 1.01
C=C(C)[C@H]1Cc2c(ccc3c2O[C@@H]2COc4cc(OC)c(OC)cc4[C@@H]2C3=O)O1 | 1.01
O/N=C\c1sccc1Oc1ccccc1 | 0.958
O=C1CC2(CCCC2)C(=O)N1CCNc1nccc(C(F)(F)F)n1 | 0.991
COc1cc2c(cc1OC)[C@@H]1C(=O)c3ccc4c(c3O[C@@H]1CO2)CC(C(C)C)O4 (stereo partly specified) | 0.994
CC1=NN(c2cccc(S(N)(=O)=O)c2)C(=O)C1 | 1
CC(=O)c1cc2cc(Br)ccc2oc1=O | 0.967

====

Below, each entry is listed with its recorded normalized growth.
assay: chemical genetic growth profiling, strain panel (AID 1159580);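 further: tested at 20 µM; growth read once vehicle control cultures reached saturation at 30 °C; 1 = growth at the plate median or of vehicle wells; lower values mean less growth of the strain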; conditions: S. cerevisiae deletion strains, growth OD, locus YBR171W, strain sec66, hits give low values
Hit rate of the full screen: of about 5,500 compounds, about 2,000 (36%) were called active. Another 18% or so got no clear call; they are omitted. The list shows a part of the results.

Molecule | normalized growth
C[C@]12CCC(=O)C=C1CCC1C2[C@@H](O)C[C@@]2(C)C1CC[C@]2(O)C(=O)COC(=O)CCC(=O)O (stereo not given in full) | 1.02
CN1CCN(CCCN2c3ccccc3Sc3ccc(C(F)(F)F)cc32)CC1 | 0.0984
CN1C(=O)CCS(=O)(=O)C1c1ccc(Cl)cc1 (stereo not given) | 0.988
COc1cc(/C=C/C(=O)N2CCC=CC2=O)cc(OC)c1OC | 0.995
CCN(CC)CCNC(=O)c1cc(Cl)c(N)cc1OC | 0.979
COc1cc2c(cc1OC)[C@@H]1C(=O)c3ccc4c(c3O[C@@H]1CO2)CC(C(C)C)O4 (stereo not given in full) | 0.974
COc1cc(O)cc(OC)c1OC | 0.978
CC(=O)OCC(=O)[C@@]1(O)CCC2C3CCC4=CC(=O)CC[C@]4(C)C3[C@@H](O)C[C@@]21C (stereo not given in full) | 1.04
CC(=O)[O][Hg][c]1ccccc1 | 0.0817
CCCCc1nc(Cl)c(CO)n1Cc1ccc(-c2ccccc2-c2nn[nH]n2)cc1 | 0.994
CC[C@H]1OC(=O)[C@H](C)[C@@H](O[C@H]2C[C@@](C)(OC)[C@@H](O)[C@H](C)O2)[C@H](C)[C@@H](O[C@@H]2O[C@H](C)C[C@H](N(C)C)[C@H]2O)[C@](C)(O)C[C@@H](C)[C@@H]2N[C@@H](COCCOC)O[C@H]([C@H]2C)[C@]1(C)O | 0.977
COC(=O)[C@]1(C)CC[C@]2(C)CC[C@]3(C)C4=CC=C5C(=CC(=O)C(O)=C5C)[C@]4(C)CC[C@@]3(C)[C@@H]2C1 | 0.949
C[C@]12CCC(=O)C=C1CCC1C2C(=O)C[C@@]2(C)C1CC[C@]2(O)C(=O)CO (stereo not given in full) | 1.01
CC1=NN(c2ccccc2)C(=O)C1 | 0.994
CC(=O)Oc1ccccc1C(=O)O | 0.985
CCc1cccc2c3c([nH]c12)C(CC)(CC(=O)O)OCC3 (stereo not given) | 0.959
CCC1(CC)C(=O)C=CNC1=O | 0.985
Cc1cc(=O)n(-c2ccccc2)n1C | 0.987
C#C[C@]1(O)CCC2C3CCC4=Cc5oncc5C[C@]4(C)C3CC[C@@]21C (stereo not given in full) | 0.937
CCCc1nc2c(C)cc(-c3nc4ccccc4n3C)cc2n1Cc1ccc(-c2ccccc2C(=O)O)cc1 | 1.02

====

Below, each entry is listed with its recorded normalized growth.
assay: chemical genetic growth profiling, strain panel (AID 1159580);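 further: tested at 20 µM; growth read once vehicle control cultures reached saturation at 30 °C; 1 = growth at the plate median or of vehicle wells; lower values mean less growth of the strain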; conditions: S. cerevisiae deletion strains, growth OD, locus YOR001W, strain rrp6, hits give low values
About 2,000 (36%) of roughly 5,500 compounds were called active. Another 18% or so got no clear call; they are omitted. Some of the results follow.
Observed Property: normalized growth

Molecule | Observed Value
CC(=O)OCC(=O)[C@@]12OC3(CCCC3)O[C@@H]1CC1C3CCC4=CC(=O)C=C[C@]4(C)[C@@]3(F)[C@@H](O)C[C@@]12C (stereo partly specified) | 1.02
CC1=CC2C(C(C)C)CCC(C)(O)C2CC1 (stereo unspecified) | 0.989
NCCc1c[nH]c2ccccc12 | 0.971
OCc1c[nH]c2ccccc12 | 0.854
c1ccc2c(Cc3c[nH]c4ccccc34)c[nH]c2c1 | 0.531
CC(=O)N[C@@H](Cc1c[nH]c2ccccc12)C(=O)O | 1.01
CC(=O)OC[C@H]1O[C@@H](Oc2cc(OC(C)=O)c3c(=O)cc(-c4ccc(OC(C)=O)cc4)oc3c2)[C@H](OC(C)=O)[C@@H](OC(C)=O)[C@@H]1OC(C)=O | 0.953
c1ccc([C@H]2CN3CCSC3=N2)cc1 | 0.961
CC(=O)NS(=O)(=O)c1ccc(NC(=O)c2ccccc2C(=O)O)cc1 | 1.02
COc1ccc2c(c1)[C@]13CCCC[C@H]1[C@H](C2)N(C)CC3 | 0.953
CNS(=O)(=O)c1ccc(NC(=O)c2ccccc2C(=O)O)cc1 | 1

====

experiment: chemical genetic growth profiling, strain panel (AID 1159580);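 further: tested at 20 µM; growth read once vehicle control cultures reached saturation at 30 °C; 1 = growth at the plate median or of vehicle wells; lower values mean less growth of the strain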; settings: S. cerevisiae deletion strains, growth OD, locus YNR049C, strain mso1
Out of some 5,500 compounds screened, about 2,000 (36%) were called active. Roughly 18% stayed inconclusive and do not appear here. No stated cut-off is given here; in the data, active means normalized growth mostly below about 0.91 (no sharp cut-off); inconclusive means no clear call, values can overlap the other calls; inactive means mostly above about 0.92. This is one part of the list.
Labels: active, inactive

Compound | Qualitative Label
OCc1c[nH]c2ccccc12 | inactive
CNS(=O)(=O)c1ccc(NC(=O)c2ccccc2C(=O)O)cc1 | inactive
COc1cc(-c2oc3cc(O)ccc3c(=O)c2O)ccc1O | inactive
COc1c2occc2c(OC)c2c(=O)cc(C)oc12 | inactive
COC1(C)CCC2OC2(C)CCC2C1CC2(C)C (configuration not stated) | inactive
COc1ccc(-c2oc3ccccc3c(=O)c2O)cc1OC | active
CC(=O)N[C@@H](Cc1c[nH]c2ccccc12)C(=O)O | inactive
c1ccc2c(Cc3c[nH]c4ccccc34)c[nH]c2c1 | active
COc1cc(/C=C/C(=O)N2CCC=CC2=O)cc(OC)c1OC | inactive
COc1ccc2c(=O)ccoc2c1 | inactive
O=c1c(O)c(-c2ccc(O)c(O)c2)oc2cc(O)ccc12 | inactive
CC(=O)NS(=O)(=O)c1ccc(NC(=O)c2ccccc2C(=O)O)cc1 | inactive
